- Procedure Summary: Cytotoxicity assay (CellTiter-Glo, 24 h)
- Format: cell-based
- Study Conditions: human, CC50 (50% loss of viability), single experiments, individual experiments
Readout Label: CC50 at 24 h

Take a look at these entries with their results.
INSERT INTO results (molecule, readout_label, recorded_measurement) VALUES
  ('CCC[C@H](NC(=O)[C@@H]1[C@H]2CCC[C@H]2CN1C(=O)[C@@H](NC(=O)[C@@H](NC(=O)c1cnc(C(=O)NCCOCCOCCOc2cc3c4c(cccc4c2)C(=O)N(C2CCC(=O)NC2=O)C3=O)cn1)C1CCCCC1)C(C)(C)C)C(=O)C(=O)NC1CC1 (stereo partly drawn)', 'CC50 at 24 h', '> 40 µM'),
  ('CCC[C@H](NC(=O)[C@@H]1[C@H]2CCC[C@H]2CN1C(=O)[C@@H](NC(=O)[C@@H](NC(=O)c1cnccn1)C1CCCCC1)C(C)(C)C)C(=O)C(=O)NC1CC1 [telaprevir, reference compound]', 'CC50 at 24 h', '32 µM'),
  ('CCC[C@H](NC(=O)[C@@H]1[C@H]2CCC[C@H]2CN1C(=O)[C@@H](NC(=O)[C@@H](NC(=O)c1cnc(C(=O)NCCCCCCNc2cccc3c2CN(C2CCC(=O)NC2=O)C3=O)cn1)C1CCCCC1)C(C)(C)C)C(=O)C(=O)NC1CC1 (stereo partly drawn)', 'CC50 at 24 h', '> 40 µM'),
  ('CCC[C@H](NC(=O)[C@@H]1[C@H]2CCC[C@H]2CN1C(=O)[C@@H](NC(=O)[C@@H](NC(=O)c1cnc(C(=O)NCCOCCOCCNc2cccc3c2C(=O)N(C2CCC(=O)N(C)C2=O)C3=O)cn1)C1CCCCC1)C(C)(C)C)C(=O)C(=O)NC1CC1 (stereo partly drawn)', 'CC50 at 24 h', '> 40 µM'),
  ('CCC[C@H](NC(=O)[C@@H]1[C@H]2CCC[C@H]2CN1C(=O)[C@@H](NC(=O)[C@@H](NC(=O)c1cnc(C(=O)NCCOCCOCCOc2cc3c4c(cccc4c2)C(=O)N(C2CCC(=O)N(C)C2=O)C3=O)cn1)C1CCCCC1)C(C)(C)C)C(=O)C(=O)NC1CC1 (stereo partly drawn)', 'CC50 at 24 h', '> 40 µM');

Next molecule, CC50 at 24 h to be filled in.
Task: For CCC[C@H](NC(=O)[C@@H]1[C@H]2CCC[C@H]2CN1C(=O)[C@@H](NC(=O)[C@@H](NC(=O)c1cnc(C(=O)NCCOCCOCCNc2cccc3c2C(=O)N(C2CCC(=O)NC2=O)C3=O)cn1)C1CCCCC1)C(C)(C)C)C(=O)C(=O)NC1CC1 (stereo partly drawn) , what is its reported CC50 at 24 h?
Output: > 40 µM

* * *

- Procedure Summary: Cytotoxicity assay (CellTiter-Glo, 24 h)
- Type: cell-based
- Study Conditions: human, CC50 (50% loss of viability), average value reported, averaged from n = 2
Exercise: for every item that follows, state its recorded CC50 at 24 h.

Example cases with answers are listed next.
INSERT INTO measurements (compound, readout_label, recorded_measurement) VALUES
  ('CCC[C@H](NC(=O)[C@@H]1[C@H]2CCC[C@H]2CN1C(=O)[C@@H](NC(=O)[C@@H](NC(=O)c1cnc(C(=O)NCCOCCOCCNc2cccc3c2C(=O)N(C2CCC(=O)N(C)C2=O)C3=O)cn1)C1CCCCC1)C(C)(C)C)C(=O)C(=O)NC1CC1 (stereo partly drawn)', 'CC50 at 24 h', '> 40 µM'),
  ('CCC[C@H](NC(=O)[C@@H]1[C@H]2CCC[C@H]2CN1C(=O)[C@@H](NC(=O)[C@@H](NC(=O)c1cnc(C(=O)NCCOCCOCCNc2cccc3c2C(=O)N(C2CCC(=O)NC2=O)C3=O)cn1)C1CCCCC1)C(C)(C)C)C(=O)C(=O)NC1CC1 (stereo partly drawn)', 'CC50 at 24 h', '> 40 µM'),
  ('CCC[C@H](NC(=O)[C@@H]1[C@H]2CCC[C@H]2CN1C(=O)[C@@H](NC(=O)[C@@H](NC(=O)c1cnc(C(=O)NCCOCCOCCOc2cc3c4c(cccc4c2)C(=O)N(C2CCC(=O)N(C)C2=O)C3=O)cn1)C1CCCCC1)C(C)(C)C)C(=O)C(=O)NC1CC1 (stereo partly drawn)', 'CC50 at 24 h', '> 40 µM'),
  ('CCC[C@H](NC(=O)[C@@H]1[C@H]2CCC[C@H]2CN1C(=O)[C@@H](NC(=O)[C@@H](NC(=O)c1cnccn1)C1CCCCC1)C(C)(C)C)C(=O)C(=O)NC1CC1 [telaprevir, reference compound]', 'CC50 at 24 h', '28 µM');

Hi! Can you tell me CC50 at 24 h for each of these compounds?
1. CCC[C@H](NC(=O)[C@@H]1[C@H]2CCC[C@H]2CN1C(=O)[C@@H](NC(=O)[C@@H](NC(=O)c1cnc(C(=O)NCCOCCOCCOc2cc3c4c(cccc4c2)C(=O)N(C2CCC(=O)NC2=O)C3=O)cn1)C1CCCCC1)C(C)(C)C)C(=O)C(=O)NC1CC1 (stereo partly drawn)
2. CCC[C@H](NC(=O)[C@@H]1[C@H]2CCC[C@H]2CN1C(=O)[C@@H](NC(=O)[C@@H](NC(=O)c1cnc(C(=O)NCCCCCCNc2cccc3c2CN(C2CCC(=O)NC2=O)C3=O)cn1)C1CCCCC1)C(C)(C)C)C(=O)C(=O)NC1CC1 (stereo partly drawn)

Output:
1. > 40 µM
2. > 40 µM
